Origin of the recorded values: patent US20220233566A1

Tested on: K562
Experiment: Growth suppression activity in human tumor cell line
Type: cell-based
Details: 72 h; Human hematopoietic organ tumor, K562, 3 days
pIC50: −log10 of the molar value.
Outcome Measure: pIC50

- Nc1ncnc2c1c(Br)cn2[C@@H]1O[C@H](CO)[C@@H](O)[C@@H]1F: 6.96

----------
Test system: BHL-89
Test: Growth suppression activity in human tumor cell line
Assay type: cell-based
Conditions: 72 h; Human hematopoietic organ tumor, BHL-89, 3 days
pIC50: −log10 of the molar value.
Outcome Measure: pIC50

• Nc1ncnc2c1c(Br)cn2[C@@H]1O[C@H](CO)[C@@H](O)[C@@H]1F = 6.64

----------
Tested on: A2780
Assay: Growth suppression activity in human tumor cell line
Type: cell-based
Settings: 72 h; Human ovary cancer, A2780, 3 days
Outcome Measure: IC50 (nM)

- Nc1ncnc2c1c(Br)cn2[C@@H]1O[C@H](CO)[C@@H](O)[C@@H]1F: 50

----------
Test system: H1650
Assay: Growth suppression activity to human tumor cell line (Evaluation 2)
Type: cell-based
Conditions: NCI-H1650, 72 h, Human lung cancer, H1650, 3 days
We begin with a simple list: items and their reported IC50.
Outcome Measure: IC50 (µM)

- Nc1ncnc2c1c(Cl)cn2[C@@H]1O[C@H](CO)[C@@H](O)[C@@H]1F: 0.031
- Nc1ncnc2c1c(Br)cn2[C@@H]1O[C@H](CO)[C@@H](O)[C@@H]1F: 0.008

----------
Tested on: RKO
Assay: Growth suppression activity to human tumor cell line (Evaluation 2)
Assay type: cell-based
Conditions: 72 h, Human colorectal cancer, 3 days
pIC50: −log10 of the molar value.
Outcome Measure: pIC50

- Nc1ncnc2c1c(Cl)cn2[C@@H]1O[C@H](CO)[C@@H](O)[C@@H]1F: 6.87
- Nc1ncnc2c1c(Br)cn2[C@@H]1O[C@H](CO)[C@@H](O)[C@@H]1F: 7.51

----------
The entries below are paired with their reported pIC50.
Tested on: A172
Experiment: Growth suppression activity in human tumor cell line
Type: cell-based
Conditions: A 172, 72 h; Human brain tumor, A172, 3 days
pIC50: −log10 of the molar value.
Outcome Measure: pIC50

• Nc1ncnc2c1c(Br)cn2[C@@H]1O[C@H](CO)[C@@H](O)[C@@H]1F = 6.85
• Nc1ncnc2c1c(I)cn2[C@@H]1O[C@H](CO)[C@@H](O)[C@@H]1F = 7.52

----------
Test: Presence of prodrug in mouse and absorbency (plasma AUC after oral administration)
Type: in vivo
Details: male, Balb/cA, mouse, 7.6 umol/kg, mice, 7.6 μmol/kg, administered compound itself in plasma, read-out: AUC0-6hr
Method: The dosage amounts of the compounds of Comparative Examples 1 to 5 and Examples 1 to 26 are those (mole/10 mL/kg) shown in Tables. Solutions for administration were prepared with an 0.5% aqueous solutions of HPMC so as to satisfy the dosage amounts. […] The blood sampled was immediately centrifuged (13000 rpm, 2 minutes, 4° C.) to prepare the plasma samples. After proteins were removed from the plasma samples, the concentrations of the test compound in the plasma samples were measured by LC/MS/MS. […]
Outcome Measure: AUC(0-t)

• Nc1ncnc2c1c(I)cn2[C@@H]1O[C@H](CO)[C@@H](O)[C@@H]1F = 0.21 µM·h

----------
Tested on: MCF7
Assay: Growth suppression activity in human tumor cell line
Type: cell-based
Conditions: 72 h; Human breast cancer, MCF7, 3 days
Outcome Measure: IC50

- Nc1ncnc2c1c(Br)cn2[C@@H]1O[C@H](CO)[C@@H](O)[C@@H]1F: 0.08 µM
